Catalogue of cell growth values
- Tested on: OVCAR-3-derived ovarian cancer stem-like cells (spheroids)
- Experimental Details: cell growth relative to untreated control; higher = more growth (less inhibition)
- Conditions: 2.29 µM; 96 h

Compound	cell growth [%]
COc1cc(/C=C2\S/C(=N/Nc3nc(-c4ccc(Br)cc4)cs3)NC2=O)cc(OC)c1OC	91.9
COc1ccc2c(c1[N+](=O)[O-])CC[C@@H]1[C@@H]2CC[C@]2(C)C(=O)CC[C@@H]12	152
Cc1ccc(S(=O)(=O)N2CCSCCSCCSCCSCC2)cc1	92.2
COc1ccccc1Cc1nc(-c2ccccc2)nn(C2OC(COC(C)=O)C(OC(C)=O)C(OC(C)=O)C2OC(C)=O)c1=S (stereo not given)	97.5
CC1=NN(C(=O)c2ccncc2)C(=O)C1N=Nc1ccc(F)cc1 (stereo not given)	146
O=C(O)c1ccc(NC(c2ccccc2)c2ccc3cccnc3c2O)cc1 (stereo not given)	89.7
O=C(CCc1ccccc1)On1nnc2ccccc2c1=O	79
C=C1C(=O)OC2C1CC1OC2C(C)CCC/C(C)=C\CCC1(C)O (stereo not given)	115
O=C(O)c1ccccc1-c1ccccc1C(=O)Nc1ccc2c(c1)Cc1ccccc1-2	80.8
O=C1Nc2c(Cl)cc(Cl)cc2C1=O	22.4
CCCCCCCCCCCCCCCCOP(=O)([O-])OCC[N+](C)(C)C	85.9
COc1cc2cc(c1Cl)N(C)C(=O)C[C@H](OC(=O)[C@H](C)N(C)C(C)=O)[C@]1(C)O[C@H]1[C@H](C)[C@@H]1C[C@@](O)(NC(=O)O1)[C@H](OC)/C=C/C=C(\C)C2	22.5
Cc1ccccc1NC(=O)C(=O)C(C(=O)c1ccccc1F)C1OC(=O)c2ccccc21 (stereo not given)	94.9
CC(C)(C)c1ccc(OC2CCO2)cc1 (stereo not given)	89.3
Cc1ccc2ccc3ccc(C)nc3c2n1	18.5
NC(N)=NCCCS(=O)(=O)Nc1ccc(Nc2c3ccccc3nc3cc([N+](=O)[O-])ccc23)cc1	127
Nc1nc(-c2cccs2)cs1	57.1
COc1ccc(OC)c(-c2cc(=O)c3c(OC)c(OC)c(OC)c(OC)c3o2)c1	128
O=C1c2ccccc2C(=O)c2c(O)c(NCCNCCO)cc(O)c21	82.8
C=CC(=O)N1C/C(=C\c2ccccc2)C(=O)/C(=C/c2ccccc2)C1	43.2
COc1ccc2c(c1)C=C([N+](=O)[O-])C(C1OC(C)(C)OC1C1COC(C)(C)O1)O2 (stereo not given)	84.6
Cc1nc(-c2cccnc2)sc1C(=O)/C=C/c1ccc(Cl)cc1Cl	114
CN(C)CCCN1c2ccccc2Sc2ccc3ccccc3c21	117
C/C(NNC(=O)c1ccccc1O)=C1\C=Nc2ccccc2S1	16
CC(CN1CC(=O)NC(=O)C1)N1CC(=O)NC(=O)C1 (stereo not given)	221
COc1cc(/C=C/C(=O)CC(=O)/C=C/c2ccc(O)c(OC)c2)ccc1O	89
Cn1cnc([N+](=O)[O-])c1Sc1nnnn1-c1ccccc1	92.6
O=C1/C(=C/c2cccs2)Oc2ccccc21	94
CCc1cccc(C(C)C)c1NC(=O)/C(=N\NC(N)=O)C(C(=O)OC)c1cnc2ccccc2n1 (stereo not given)	71.4
BrC(/C=N/Nc1nnc(-c2ccccc2)c(-c2ccccc2)n1)C(Br)c1ccccc1 (stereo not given)	93.9
COc1cc(OC)c(OC)cc1/C=C/c1ccnc2ccccc12	75.8
O=[N+]([O-])c1ccccc1S(=O)(=O)c1ccccc1[N+](=O)[O-]	77.1
O=c1[nH]c2ccc(O)cc2o1	80.8
NC(=S)N/N=C/c1ccc(OC(=O)COc2ccccc2Cl)cn1	90.5
O=C1C2=Nc3ccccc3C(O)N2c2ccccc21 (stereo not given)	91
O=C1C=CC(CC(=O)c2ccc3ccccc3c2)O1 (stereo not given)	112
C=C(NC(=O)C(=C)NC(=O)c1csc(C2=N[C@@H]3c4csc(n4)C4NC(=O)c5csc(n5)C([C@](C)(O)[C@@H](C)O)NC(=O)[C@H]5CSC(=N5)/C(=C/C)NC(=O)C(C(C)O)NC(=O)c5csc(n5)C3(CC2)NC(=O)[C@H](C)NC(=O)C(=C)NC(=O)C(=C)NC(=O)C(C(C)C)N[C@@H]2C=Cc3c([C@@H](C)O)cc(nc3[C@H]2O)C(=O)OC4C)n1)C(N)=O (stereo not given in full)	56.7
Cc1ccc([N+](=O)[O-])cc1NC(=O)c1cccc([N+](=O)[O-])c1O	146
CN(C)C(=S)/N=c1\ss/c(=N\C(=S)N(C)C)n1-c1ccc2c(c1)OCO2	76.4
CC1(C)CC(Nc2ccc(Nc3ccccc3)cc2)CC(C)(C)N1	72.4
